Reported MIC values are given for each entry in this list.
- Test system: Enterococcus faecium
- ASSAY_COMMENT: In vitro antibacterial activity against Enterococcus faecium strain GC 1182, expressed as MIC(minimum inhibitory concentration)
- Format: functional

Field: example entries. Status: answers known.
>>> observed_value("C[C@@H](O)[C@H]1C(=O)N2C(C(=O)O)=C(SCCNC=N)C[C@H]12 [IMIPENEM ANHYDROUS]")
"128 µg/mL"
>>> observed_value("C[C@H]1C(S[C@@H]2[C@@H](C)O[C@@H]2CN)=C(C(=O)[O-])N2C(=O)[C@H]([C@@H](C)O)C12.[Na+] (stereo partly drawn)")
"> 128 µg/mL"
>>> observed_value("COC(=O)[C@H]1O[C@H](CO)[C@H]1SC1=C(C(=O)[O-])N2C(=O)[C@H]([C@@H](C)O)[C@H]2[C@H]1C.[Na+]")
"> 128 µg/mL"
>>> observed_value("COC(=O)[C@H]1O[C@H](COS(=O)(=O)c2ccc(C)cc2)[C@H]1SC1=C(C(=O)[O-])N2C(=O)[C@H]([C@@H](C)O)[C@H]2[C@H]1C.[Na+]")
"> 128 µg/mL"
>>> observed_value("C[C@H]1C(S[C@H]2[C@@H](CN)O[C@@H]2CO)=C(C(=O)O)N2C(=O)[C@H]([C@@H](C)O)C12 (stereo partly drawn)")
"> 128 µg/mL"

MIC in this record for CC1C(S[C@@H]2CCO[C@@H]2CN)=C(C(=O)O)N2C(=O)[C@H]([C@@H](C)O)[C@@H]12 (single isomer, unassigned) : 64 µg/mL

MIC in this record for COC(=O)[C@H]1O[C@H](CN)[C@H]1SC1=C(C(=O)O)N2C(=O)[C@H]([C@@H](C)O)[C@H]2[C@H]1C : > 128 µg/mL

MIC in this record for C[C@@H](O)[C@H]1C(=O)N2C(C(=O)[O-])=C(S[C@H]3[C@@H](C(=O)N(C)C)O[C@@H]3CO)[C@H](C)[C@H]12.[Na+] : > 64 µg/mL
